# System: KM20L2 colon
# Assay Remarks: NCI tumour cell line growth inhibition, 48 h
Where a SMILES comes first, the peptide text is derived from it. [ ]: non-standard residue; d: D form. The star is where a group is joined. ξ: configuration not given here. NMeF = CN[CH](Cc1ccccc1)C(=O)O; ξNMe2Val = CC(C)C(C(=O)*)N(C)C; NMeV = CN[CH](C(=O)O)C(C)C; OtBu = CC(C)(C)O*
# TGI listing for each entry below

These recorded examples may help you get a feel for the data.
Compound	TGI
CC(C)C(C(=O)N(C)C(Cc1ccccc1)C(=O)N(C)C(C(=O)N(C)C(C(=O)N1CCCC1C(=O)OC(C)(C)C)C(C)C)C(C)C)N(C)C (centres undefined) (ξNMe2Val-[NMeF][NMeV][NMeV]P-OtBu; configuration not given here)	46.4 µM
COC1/C(=C\C(C)=O)c2ccccc2N1C(C)=O (centres undefined)	> 100 µM
Cc1[nH]c2cc([N+](=O)[O-])ccc2c1[N+](=O)[O-]	> 100 µM

With those in mind, consider the next compound.
Req: What measured TGI goes with O=C1C(=C([O-])c2ccccc2)C(=O)c2ccccc21.O=C1C(=C([O-])c2ccccc2)C(=O)c2ccccc21.[Ni+2] ?
Resp: > 100 µM

---

# Test system: CCRF-CEM leukemia
# Assay Remarks: NCI tumour cell line growth inhibition, 48 h
Measured Quantity: TGI (µM)
Unit µM implied. Number only.

Compound	Measured Quantity	Numeric Result
O=C(NCCNCCO)c1ccc(Nc2nc3ccccc3c3occc23)cc1	TGI	14.3
O=C(NC1=C(Cl)C(=O)c2ccccc2C1=O)C(=O)C(C(=O)c1ccc2ccccc2c1)C1OC(=O)c2ccccc21 (stereo not given)	TGI	26.9
COc1ccc2nc3ccccc3c(NCCNCC(C)O)c2c1 (stereo not given)	TGI	3.47
CC(=O)[CH-]C(=O)c1ccccc1.CC(=O)[CH-]C(=O)c1ccccc1.CC(=O)[CH-]C(=O)c1ccccc1.[Ga+3]	TGI	35.7
CCN(C(=O)N[C@H](C(=O)N[C@@H](CSC)C(=O)N[C@@H](C)C(=O)OC)C(C)C)c1ccccc1	TGI	19.3

Req: Fill blank: measured TGI of the compound COc1cc(-c2ccc[nH]2)[nH]c1/C=C1\N=C(C)C(CC(=O)OCC(C)(C)C)=C1C is ____.
Resp: 2.12

Req: Field entry: Cc1cc(N(CCNc2ccnc3cc(Cl)ccc23)Cc2ccc3c(c2)OCO3)nc(N2CCCC2)n1
Resp: 9.09

Req: Item: C(=N\NC1=NCCN1)/c1ccc2ccccc2c1
Resp: 41.8

Req: Further, for Fc1ccc(C(OCCN2CCC3CCC(C2)N3C/C=C/c2cccs2)c2ccc(F)cc2)cc1 (stereo not given) ?
Resp: 26.7

---

Measured TGI of individual entries
# Test system: BT-549 breast
# Assay Remarks: NCI tumour cell line growth inhibition, 48 h
Kindly answer with a numeric value in µM, unit omitted.

# count of solved cases: 5
Compound	Uom	TGI
CC1=C(C(=O)Nc2ccc(Cl)c(Cl)c2)C(c2cccc(Cl)c2)NC(=S)N1 (stereo not given)	µM	38.6
CCCCCCCCCCCCOC1C(COCCN2CCCCC2)OC2OC(C)(C)OC21 (stereo not given)	µM	5.8
O=S(=O)(/N=C(\NO)Nc1ccc(Cl)cc1)c1cc2ccccc2s1	µM	31.6
COc1ccc(-c2oc3cc(O)c(OC)c(O)c3c(=O)c2O)cc1	µM	72.8
O=C(C(=CN1CCN(C(=O)c2ccco2)C1=S)C(=O)c1ccccc1)c1ccccc1	µM	26.4

Req: Dear colleague, I am looking for the recorded TGI of the following compound: CC(C)(C)[Si](C)(C)OC1[C@@H](COC(=O)NC(=O)CCl)O[C@@H](n2cnc3c(N)ncnc32)[C@H]1O[Si](C)(C)C(C)(C)C (stereo not given in full)
Resp: 1.85

Req: # iterate: CC1=C[C@@H]2c3c(c(O)c(O)c4oc5cc(O)cc(O)c5c(=O)c34)[C@@H](c3cc(O)c(O)c4oc5cc(O)cc(O)c5c(=O)c34)[C@@H]2C(C)(C)C1
Resp: 19.8

Req: Same read-out for N#Cc1c(N)nc(N2CCOCC2)c(C#N)c1-c1c(Cl)cccc1Cl ?
Resp: 79.7

Req: Now consider Cc1ccnc(Nc2[nH]c(C(=O)c3ccc(Cl)cc3)c(N)c2C(=S)Nc2ccccc2)c1 .
Resp: 30.5

Req: Further, for COc1ccc2c(c1)C(=O)c1c-2n(CCCN(C)C)c(=O)c2cc([N+](=O)[O-])ccc12 ?
Resp: 0.621

Req: What about CSc1ccc(C(=O)/C=C/c2ccc(Cl)cc2Cl)cc1 ?
Resp: 33.1

Req: Please answer likewise for O=C(Oc1c(Cl)cc(Cl)cc1Cl)c1ccccc1Nc1ccnc(C(F)(F)F)c1
Resp: 6.98

Req: Let us now turn to O=C1/C(=C/c2ccc(C(F)(F)F)cc2)COc2ccc(O)c(O)c21
Resp: 3.58
